Numbers sourced from ChEMBL document CHEMBL1125461.

Kindly supply the reported Lethality values for the records listed here.
- System: Oryctolagus cuniculus
- measurementNotes: Compound was tested for protecting PAF-induced lethality in rabbit at a dose of 2.5 mg/kg (Out of 2)
- Format: functional
Respond numerically; units are dead/total and should not be typed.

Problem: Could you please provide reported Lethality for CCCCCCCCCCCCCCCCOCC(COP(=O)([O-])Oc1cccc(C[n+]2csc(C)c2)c1)OC (configuration not stated) ? Thanks!
Result: 1

Problem: Could you please provide reported Lethality for CCCCCCCCCCCCCCCCOCC(COP(=O)([O-])Oc1cccc(C[n+]2ccsc2)c1)OC (configuration not stated) ? Thanks!
Result: 1

Problem: Could you please provide reported Lethality for CCCCCCCCCCCCOc1cc(OP(=O)([O-])Oc2cccc(C[n+]3ccsc3)c2)c(C(C)(C)C)cc1C(C)(C)C ? Thanks!
Result: 2

Problem: Could you please provide reported Lethality for CCCCCCCCCCCCOc1cccc(OCC(COP(=O)([O-])Oc2cccc(C[n+]3csc(C)c3)c2)OCC)c1C (configuration not stated) ? Thanks!
Result: 1

Problem: Could you please provide reported Lethality for CCCCCCCCCCCCCCCCOCC(COP(=O)([O-])Oc1ccccc1C[n+]1ccsc1)OC (configuration not stated) ? Thanks!
Result: 1

Problem: Could you please provide reported Lethality for CCCCCCCCCCCCOc1cc(C(C)(C)C)c(OP(=O)([O-])Oc2cccc(C[n+]3csc(C)c3)c2)cc1C(C)(C)C ? Thanks!
Result: 0

Problem: Could you please provide reported Lethality for CCCCCCCCCCCCCCc1cccc(OCC(COP(=O)([O-])Oc2cccc(C[n+]3ccsc3)c2)OC)c1 (configuration not stated) ? Thanks!
Result: 1
